- System: 485368-065-R3-J5-PDC spheroids with HUVEC/MSC, viability
- ASSAY NOTES: Anticancer human tumor 485368-065-R3-J5-PDC patient-derived pancreatic carcinoma cell line growth inhibition [RAS]
- MEASUREMENT SETUP: second compound 0.01 µM; first compound 0.01 µM; stronger effect = lower value
Each item that follows carries a reported viability, T/C.
All answers are understood in %, so give the number only.

Record excerpt, results attached:
COMPOUND	UNIT INFO	viability, T/C
O=C(c1ccc(F)c(F)c1Nc1ccc(I)cc1F)N1CC(O)([C@@H]2CCCCN2)C1 + C=CC(=O)N1CCN(c2nc(OCC3CCCN3C)nc3c(F)c(-c4nc(N)cc(C)c4C(F)(F)F)c(Cl)cc23)C(C)C1	%	71.6
C=CC(=O)Nc1cc(Nc2nccc(-c3cn(C)c4ccccc34)n2)c(OC)cc1N(C)CCN(C)C + C=CC(=O)N1CCN(c2nc(OCC3CCCN3C)nc3c(F)c(-c4nc(N)cc(C)c4C(F)(F)F)c(Cl)cc23)C(C)C1	%	96.9
CCN1CCN(Cc2ccc(Nc3ncc(F)c(-c4cc(F)c5nc(C)n(C(C)C)c5c4)n3)nc2)CC1 + C=CC(=O)N1CCN(c2nc(OCC3CCCN3C)nc3c(F)c(-c4nc(N)cc(C)c4C(F)(F)F)c(Cl)cc23)C(C)C1	%	96.7
CC(C)n1nc(-c2ccc3oc(N)nc3c2)c2c(N)ncnc21 + C=CC(=O)N1CCN(c2nc(OCC3CCCN3C)nc3c(F)c(-c4nc(N)cc(C)c4C(F)(F)F)c(Cl)cc23)C(C)C1	%	53.6

We next turn to a different compound, shown below.
Exercise: Request the reported viability, T/C associated with Nc1ccn(C2OC(CO)C(O)C2(F)F)c(=O)n1 (stereo not given) + C=CC(=O)N1CCN(c2nc(OCC3CCCN3C)nc3c(F)c(-c4nc(N)cc(C)c4C(F)(F)F)c(Cl)cc23)C(C)C1
Key: 16.8

###

- Tested on: 485368-065-R3-J5-PDC spheroids with HUVEC/MSC, viability
- ASSAY NOTES: Anticancer human tumor 485368-065-R3-J5-PDC cell line growth inhibition [RAS];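 also: spheroids exposed to agents for seven days before readout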
- MEASUREMENT SETUP: second compound 0.003 µM; first compound 0.01 µM; stronger effect = lower value
VALUE TYPE: viability, T/C (%)
All answers are understood in %, so give the number only.

Record excerpt, results attached:
MOLECULE	viability, T/C / %
C=CC(=O)Nc1cc(Nc2nccc(-c3cn(C)c4ccccc34)n2)c(OC)cc1N(C)CCN(C)C + CCn1c(-c2cc(N3CCN(C)CC3)cnc2C(C)OC)c2c3cc(ccc31)-c1csc(n1)CC(NC(=O)C1CC1C)C(=O)N1CCCC(N1)C(=O)OCC(C)(C)C2	19.9
O=C(c1ccc(F)c(F)c1Nc1ccc(I)cc1F)N1CC(O)([C@@H]2CCCCN2)C1 + CCn1c(-c2cccnc2C(C)OC)c2c3cc(ccc31)N1CCOC(CC(NC(=O)C(C(C)C)N(C)C(=O)C3(F)CCN(C(=O)C#CC(C)(C)N(C)C)CC3)C(=O)N3CCCC(N3)C(=O)OCC(C)(C)C2)C1	88.4
C=CC(=O)N1CCN(c2nc(OCC3CCCN3C)nc3c(F)c(-c4nc(N)cc(C)c4C(F)(F)F)c(Cl)cc23)C(C)C1 (centres undefined) + CCn1c(-c2cccnc2C(C)OC)c2c3cc(ccc31)N1CCOC(CC(NC(=O)C(C(C)C)N(C)C(=O)C3(F)CCN(C(=O)C#CC(C)(C)N(C)C)CC3)C(=O)N3CCCC(N3)C(=O)OCC(C)(C)C2)C1	99.5

We next turn to a different molecule, shown below.
Exercise: Request the reported viability, T/C associated with O=C(c1ccc(F)c(F)c1Nc1ccc(I)cc1F)N1CC(O)([C@@H]2CCCCN2)C1 + CCn1c(-c2cc(N3CCN(C)CC3)cnc2C(C)OC)c2c3cc(ccc31)-c1csc(n1)CC(NC(=O)C1CC1C)C(=O)N1CCCC(N1)C(=O)OCC(C)(C)C2
Key: 20.3

###

- Tested on: 485368-065-R3-J5-PDC spheroids with HUVEC/MSC, viability
- ASSAY NOTES: Anticancer human tumor 485368-065-R3-J5-PDC cell line growth inhibition [RAS];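 also: spheroids exposed to agents for seven days before readout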
- MEASUREMENT SETUP: curve of first compound; second compound 0.03 µM
VALUE TYPE: IC50 (µM)
All answers are understood in µM, so give the number only.

COMPOUND	MEASURED RESULT
CC1(C)CCC(Nc2ncc(C(F)(F)F)c(-c3c[nH]c4c(P(C)(C)=O)c(C#N)ccc34)n2)CN1 (centres undefined) + CCn1c(-c2cccnc2C(C)OC)c2c3cc(ccc31)N1CCOC(CC(NC(=O)C(C(C)C)N(C)C(=O)C3(F)CCN(C(=O)C#CC(C)(C)N(C)C)CC3)C(=O)N3CCCC(N3)C(=O)OCC(C)(C)C2)C1	0.00735

We next turn to a different compound, shown below.
Exercise: Request the reported IC50 associated with CC(C)n1nc(-c2ccc3oc(N)nc3c2)c2c(N)ncnc21 + CCn1c(-c2cccnc2C(C)OC)c2c3cc(ccc31)N1CCOC(CC(NC(=O)C(C(C)C)N(C)C(=O)C3(F)CCN(C(=O)C#CC(C)(C)N(C)C)CC3)C(=O)N3CCCC(N3)C(=O)OCC(C)(C)C2)C1
Key: 0.0217

###

Each item that follows carries a reported viability, T/C.
- Tested on: 485368-065-R3-J5-PDC spheroids with HUVEC/MSC, viability
- ASSAY NOTES: Anticancer human tumor 485368-065-R3-J5-PDC cell line growth inhibition [RAS];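 also: spheroids exposed to agents for seven days before readout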
- MEASUREMENT SETUP: second compound 0.1 µM; first compound 10 µM; stronger effect = lower value

Exercise: Request the reported viability, T/C associated with CC(Nc1ccc2c(c1)OCCn1cc(N3C(=O)OCC3C(F)F)nc1-2)C(N)=O (centres undefined) + C=CC(=O)N1CCN(c2nc(OCC3CCCN3C)nc3c(F)c(-c4nc(N)cc(C)c4C(F)(F)F)c(Cl)cc23)C(C)C1
Key: 49.3%

Exercise: Request the reported viability, T/C associated with CC1(O)CCCC1n1c(=O)c(C(F)F)cc2cnc(NC3CCN(S(C)(=O)=O)CC3)nc21 (centres undefined) + C=CC(=O)N1CCN(c2nc(OCC3CCCN3C)nc3c(F)c(-c4nc(N)cc(C)c4C(F)(F)F)c(Cl)cc23)C(C)C1
Key: 10.6%

Exercise: Request the reported viability, T/C associated with CC(C)NCC(C(=O)N1CCN(c2ncnc3c2C(C)CC3O)CC1)c1ccc(Cl)cc1 (centres undefined) + C#Cc1c(F)ccc2cc(O)cc(-c3ncc4c(N5CC6CCC(C5)N6)nc(OCC56CCCN5CC(F)C6)nc4c3F)c12
Key: 57.9%

Exercise: Request the reported viability, T/C associated with CC(=O)OC12COC1CC(O)C1(C)C(=O)C(O)C3=C(C)C(OC(=O)C(O)C(NC(=O)OC(C)(C)C)c4ccccc4)CC(O)(C(OC(=O)c4ccccc4)C21)C3(C)C (centres undefined) + C=CC(=O)N1CCN(c2nc(OCC3CCCN3C)nc3c(F)c(-c4nc(N)cc(C)c4C(F)(F)F)c(Cl)cc23)C(C)C1
Key: 20.2%

###

- Tested on: 485368-065-R3-J5-PDC spheroids with HUVEC/MSC, viability
- ASSAY NOTES: Anticancer human tumor 485368-065-R3-J5-PDC cell line growth inhibition [RAS];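 also: spheroids exposed to agents for seven days before readout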
- MEASUREMENT SETUP: second compound 0.000949 µM; first compound 0.0316 µM; stronger effect = lower value
VALUE TYPE: viability, T/C (%)
All answers are understood in %, so give the number only.

Record excerpt, results attached:
MOLECULE	viability, T/C [%]
CCC(CC)c1cc(NC2CCC(N)C2)n2nccc2n1 (centres undefined) + CCn1c(-c2cc(N3CCN(C)CC3)cnc2C(C)OC)c2c3cc(ccc31)-c1csc(n1)CC(NC(=O)C1CC1C)C(=O)N1CCCC(N1)C(=O)OCC(C)(C)C2	42
NC1c2ccccc2OC12CCN(c1cnc3c(N4CCCc5ncccc54)n[nH]c3n1)CC2 (centres undefined) + CCn1c(-c2cccnc2C(C)OC)c2c3cc(ccc31)N1CCOC(CC(NC(=O)C(C(C)C)N(C)C(=O)C3(F)CCN(C(=O)C#CC(C)(C)N(C)C)CC3)C(=O)N3CCCC(N3)C(=O)OCC(C)(C)C2)C1	84.7
Nc1ccn(C2OC(CO)C(O)C2(F)F)c(=O)n1 (centres undefined) + CCn1c(-c2cc(N3CCN(C)CC3)cnc2C(C)OC)c2c3cc(ccc31)-c1csc(n1)CC(NC(=O)C1CC1C)C(=O)N1CCCC(N1)C(=O)OCC(C)(C)C2	8.79

Exercise: Request the reported viability, T/C associated with CCN1CCN(Cc2ccc(Nc3ncc(F)c(-c4cc(F)c5nc(C)n(C(C)C)c5c4)n3)nc2)CC1 + CCn1c(-c2cccnc2C(C)OC)c2c3cc(ccc31)N1CCOC(CC(NC(=O)C(C(C)C)N(C)C(=O)C3(F)CCN(C(=O)C#CC(C)(C)N(C)C)CC3)C(=O)N3CCCC(N3)C(=O)OCC(C)(C)C2)C1
Key: 103
